- System: DFO2036
- procedure.details: qHTS profiling for inhibitors of Plasmodium falciparum proliferation (AID 504749); also: nearly all actives have a fitted effect of over 60% in size
- test.conditions: P. falciparum in erythrocytes, SYBR Green DNA, 72 h; series mostly up to 28.7 µM
Results filed as inconclusive are left out. Activity calls are given as the source filed them. Calls follow the shape of the dose curve; as a rule, active = well fitted inhibition curve with a large enough effect; inconclusive = small, poorly fitted or top-dose-only effect; inactive = flat fitted curve, though single readings scatter.
// one of active, inactive, no free text

Reference set, count: 2
{"compound": "C=C1Nc2ccccc2C(=O)N1c1ccccc1C", "study.system": "DFO2036", "class.assignment": "inactive"}
{"compound": "C[C@H](N)Cc1ccccc1", "study.system": "DFO2036", "class.assignment": "inactive"}

Dear colleague, could you share the recorded outcome for CCCCCc1cc(O)c2c(c1)OC(C)(C)C1CC=C(C)CC21 (stereo unspecified) when you have a moment?
active

Next: CC1(C)[C@@H](C=C(Cl)Cl)[C@@H]1C(=O)OCc1c(F)c(F)cc(F)c1F
inactive

Again, but for CC(C)=CC1C(C(=O)OCc2coc(Cc3ccccc3)c2)C1(C)C (stereo unspecified)
inactive

Follow-up entry: O=[N+]([O-])OC1CO[C@H]2C(O[N+](=O)[O-])COC12 (stereo partly specified)
inactive

Also check Nc1nc(O)c(-c2ccccc2)o1
inactive

Another compound: Cc1cc(C)cc(C(=O)OC2CC3CCC(C2)N3C)c1 (stereo unspecified)
inactive

Another: CCOC(=O)/C=C(C)/C=C/CC(C)CCCC(C)C (stereo unspecified)
inactive

C[C@]12C=CC(=O)C=C1CC[C@@H]1C2CC[C@]2(C)OC(=O)CCC12 (stereo partly specified) ?
inactive

Similarly, CCCCCC(O)C1C(=O)OC(C)C(O)\C=C/C=C\C=C/C=C\C=C(\C)C(O)C(O)C(O)CC(O)CC(O)CC(O)CC(O)CC1O (stereo unspecified) ?
inactive

====

- study.system: Retinoic acid receptor RXR-alpha (Homo sapiens) (UniProt P19793)
- Sequence (P19793 whole entry, looked up): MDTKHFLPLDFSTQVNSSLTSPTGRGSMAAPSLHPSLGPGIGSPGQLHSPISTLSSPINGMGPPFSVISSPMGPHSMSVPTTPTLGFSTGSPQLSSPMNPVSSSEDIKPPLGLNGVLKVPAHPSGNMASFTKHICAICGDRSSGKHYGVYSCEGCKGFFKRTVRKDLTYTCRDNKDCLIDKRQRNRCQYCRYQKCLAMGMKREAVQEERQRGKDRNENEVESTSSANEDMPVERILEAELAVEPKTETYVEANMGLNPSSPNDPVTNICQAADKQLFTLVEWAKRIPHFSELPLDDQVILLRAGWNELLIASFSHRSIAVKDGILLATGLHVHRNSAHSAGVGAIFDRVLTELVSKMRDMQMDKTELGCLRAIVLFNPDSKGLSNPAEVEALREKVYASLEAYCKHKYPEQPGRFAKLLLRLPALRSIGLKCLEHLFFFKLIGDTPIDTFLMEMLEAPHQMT
- procedure.details: qHTS assay for small molecule antagonists of retinoid X receptor alpha signaling (AID 588546);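 also: cells stimulated with 9-cis-retinoic acid as agonist; % is scaled to controls: 0 for no effect and ±100 for the full control effect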
- test.conditions: HEK293T RXRa-UAS-bla, beta-lactamase ratio, antagonist mode
Inconclusive results are not listed.
Threshold-based label: max response under -10% gives 1, max response not under -10% gives -1.

These recorded examples may help you get a feel for the data.
{"compound": "CN(C)c1nc(=O)n(C2CCCCC2)c(=O)n1C", "class.assignment": 1}
{"compound": "Cc1cc(C)nc(Nc2ccccc2)n1", "class.assignment": 1}
{"compound": "CC(C)(C)OOC(C)(C)c1ccc(C(C)(C)OOC(C)(C)C)cc1", "class.assignment": -1}
{"compound": "N#CCNC(=O)c1cnccc1C(F)(F)F", "class.assignment": -1}
{"compound": "COCC(=O)N(c1c(C)cccc1C)N1CCOC1=O", "class.assignment": -1}

Problem: For the compound O=[N+]([O-])C(Br)Br , is max response under -10%?
-1

Further, for ClC1=C(Cl)C2(Cl)C3C4OC4C(Cl)C3C1(Cl)C2(Cl)Cl (stereo not drawn) ?
-1

// same read-out, input: O=C(O)c1c(Cl)ccc2cc(Cl)cnc12
1

====

- procedure.details: qHTS assay for environmental chemicals that activate the Aryl hydrocarbon Receptor (AhR) signaling pathway (AID 651777); also: % of control where 0% means no effect; nearly all actives have a fitted effect of over 15% in size
- test.conditions: 1A2-DRE human hepatoma cells, luciferase, 24 h; hits give high values
Results filed as inconclusive are left out. Active and inactive are the calls of the source. Calls come from the whole dose curve; as a rule, active = well fitted activation curve with a large enough effect; inconclusive = small, poorly fitted or top-dose-only effect; inactive = flat fitted curve, though single readings scatter.
observed.property: activation

Past entries and their recorded results:
{"compound": "CC1(C)C(C(=O)OC(C#N)c2cccc(Oc3ccccc3)c2)C1(C)C (stereo not drawn)", "result": "-0.509% (inactive)"}
{"compound": "CCN(CC)C(=O)SCc1ccc(Cl)cc1", "result": "2.07% (inactive)"}

Look at this compound and give its reported activation. C#CCN1C(=O)COc2cc(F)c(N3C(=O)C4=C(CCCC4)C3=O)cc21
0.764% (inactive)

Repeat for the following compound: N#Cc1cc(I)c(O)c(I)c1
-1.69% (inactive)

CCOC(=O)C(C)OC(=O)c1cc(Oc2ccc(C(F)(F)F)cc2Cl)ccc1[N+](=O)[O-] (stereo not drawn) ?
4.56% (inactive)

Could you do the same for OC(c1ccc(Cl)cc1)(c1cncnc1)c1ccccc1Cl (stereo not drawn) , please?
2.31% (inactive)

Would you kindly repeat that for ClCc1ccccc1Cl ?
0.685% (inactive)

Proceed to C#CCC1=C(C)[C@H](OC(=O)[C@H]2[C@H](C=C(C)C)C2(C)C)CC1=O
9.06% (inactive)

Try the compound CN/C(=N\[N+](=O)[O-])NCc1cnc(Cl)s1
1.58% (inactive)

Follow-up entry: CCNc1nc(NC(C)C)nc(SC)n1
0.555% (inactive)

Now the same for N#CN=C1SCCN1Cc1ccc(Cl)nc1
1.96% (inactive)

Again, but for CCOP(=S)(OCC)SCCl
0.0178% (inactive)

Also, COP(=S)(OC)Oc1nc(Cl)c(Cl)cc1Cl please.
0.0215% (inactive)

Reference for the values: PubChem BioAssay (NCATS)
